# Condition Label: in ethanol, 298.15 K
Observed Property: solubility (mole fraction)

Consider the compound CC(C)(C)c1cc(CCC(=O)NCCCCCCNC(=O)CCc2cc(C(C)(C)C)c(O)c(C(C)(C)C)c2)cc(C(C)(C)C)c1O . State its measured solubility (mole fraction).
0.011

* * *

# Condition Label: in isopropanol, 318.15 K
Observed Property: solubility (mole fraction)
Output spec: single numeric token, no unit.

Consider the compound CC(C)(C)c1cc(CCC(=O)NCCCCCCNC(=O)CCc2cc(C(C)(C)C)c(O)c(C(C)(C)C)c2)cc(C(C)(C)C)c1O . State its measured solubility (mole fraction).
0.0107
